# Tested on: 156681-154-R-J1-PDC complex spheroid viability;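 further: spheroids exposed to the agents for seven days; 100% = DMSO vehicle control viability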
# Experimental Details: Anticancer human tumor 156681-154-R-J1-PDC patient-derived melanoma cell line growth inhibition [CLK]
# Test Conditions: second compound 3.16 µM; first compound 0.1 µM; active compounds read low
Exercise: for every item that follows, state its recorded viability, T/C.

For 156681-154-R-J1-PDC complex spheroid viability, provide viability, T/C of COc1c(OCCCN2CCOCC2)ccc2c3n(c(=NC(=O)c4cnc(N)nc4)nc12)CCN3 + CN1CCN(c2cc(C(=O)Nc3cc4cc(-c5cnn(C)c5)ccc4cn3)ccn2)CC1 please. 1.29%

Enter reported viability, T/C observed with 156681-154-R-J1-PDC complex spheroid viability for C=C(F)C(=O)N1CCN(c2nc(OCC3CCCN3C)nc3c2CCN(c2cccc4cccc(Cl)c24)C3)CC1CC#N (stereo not drawn) + CN1CCN(c2cc(C(=O)Nc3cc4cc(-c5cnn(C)c5)ccc4cn3)ccn2)CC1 1.74%

Could you share what viability, T/C was measured for COc1c(OCCCN2CCOCC2)ccc2c3n(c(=NC(=O)c4cnc(N)nc4)nc12)CCN3 + CNC(=O)c1ccc(Nc2nc(OC3CCCC3)c3c(-c4ccc5nc(C)oc5c4)c[nH]c3n2)c(OC)c1 , tested on 156681-154-R-J1-PDC complex spheroid viability? 6.45%
